- assay system: hERG (Homo sapiens, UniProt Q12809)
- Sequence (Q12809 whole entry): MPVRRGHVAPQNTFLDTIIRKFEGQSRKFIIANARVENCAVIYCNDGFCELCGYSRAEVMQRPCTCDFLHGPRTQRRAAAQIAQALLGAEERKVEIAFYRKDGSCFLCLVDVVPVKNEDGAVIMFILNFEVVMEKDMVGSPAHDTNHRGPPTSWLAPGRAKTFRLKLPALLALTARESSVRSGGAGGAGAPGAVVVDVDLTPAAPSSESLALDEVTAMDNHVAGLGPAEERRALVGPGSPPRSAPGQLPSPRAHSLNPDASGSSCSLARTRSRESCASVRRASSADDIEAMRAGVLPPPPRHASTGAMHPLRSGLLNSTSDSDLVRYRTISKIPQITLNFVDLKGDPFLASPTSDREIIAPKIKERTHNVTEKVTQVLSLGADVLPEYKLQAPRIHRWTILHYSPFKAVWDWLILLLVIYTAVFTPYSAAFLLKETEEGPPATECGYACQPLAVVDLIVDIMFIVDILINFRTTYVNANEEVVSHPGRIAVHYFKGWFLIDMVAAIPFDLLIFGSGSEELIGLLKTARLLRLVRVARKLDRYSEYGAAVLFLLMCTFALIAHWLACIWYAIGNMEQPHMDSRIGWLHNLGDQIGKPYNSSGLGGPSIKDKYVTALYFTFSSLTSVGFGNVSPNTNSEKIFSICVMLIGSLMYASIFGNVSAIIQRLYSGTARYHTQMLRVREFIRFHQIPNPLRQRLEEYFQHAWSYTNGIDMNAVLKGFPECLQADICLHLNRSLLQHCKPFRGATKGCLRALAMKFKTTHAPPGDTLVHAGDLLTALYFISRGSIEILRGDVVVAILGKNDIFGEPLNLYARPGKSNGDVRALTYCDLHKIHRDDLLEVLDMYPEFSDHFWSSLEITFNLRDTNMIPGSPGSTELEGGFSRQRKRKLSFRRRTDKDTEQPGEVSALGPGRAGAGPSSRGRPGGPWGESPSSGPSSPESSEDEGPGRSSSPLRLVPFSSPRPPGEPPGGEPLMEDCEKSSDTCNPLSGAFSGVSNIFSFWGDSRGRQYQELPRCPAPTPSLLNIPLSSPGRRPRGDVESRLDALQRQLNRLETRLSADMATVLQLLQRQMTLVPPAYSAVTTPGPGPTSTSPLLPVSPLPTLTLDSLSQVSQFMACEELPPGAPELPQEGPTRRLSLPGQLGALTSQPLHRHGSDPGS
- experimental details: Effects on hERG current (whole-cell clamping)
- condition description: human, HEK 293 cells that express hERG, pH 7.4, hERG inhibition rate (%) (1 μM), 1 μM; tail peak current; hERG-expressed HEK 293 cells
Would you mind labelling by inhibition at 1 µM? At or over 20% is class 1, under is class 0.

Example entries begin here.
- CC[C@]1(O)CC[C@](C#N)(c2ccc(NC(=O)c3cnn(-c4ccc(C)cc4)c3C)cn2)CC1: class 0
- Cc1c(C(=O)Nc2ccc([C@]3(C#N)CC[C@@H](N4CCOCC4)CC3)nc2)cnn1-c1ccc(C(F)(F)F)cc1: class 1
- CC[C@]1(O)CC[C@@](C#N)(c2ccc(NC(=O)c3cnn(-c4ccc(C)cc4)c3C)cn2)CC1: class 0

INPUT: Confirm if inhibition at 1 µM reported for the compound Cc1c(C(=O)Nc2ccc([C@]3(O)CC[C@@H](N4CCOCC4)CC3)nc2)cnn1-c1ccc(C(F)(F)F)cc1 is 20% or above.
OUTPUT: class 1

INPUT: Confirm if inhibition at 1 µM reported for the compound Cc1c(C(=O)Nc2ccc([C@]3(C#N)CC[C@@H](O)CC3)nc2)cnn1-c1ncc(C(F)(F)F)cc1F is 20% or above.
OUTPUT: class 0

Sourced from patent US9150555B2
